Where do the numbers come from? From patent US20150352108A1.

Target: TBK1 (Homo sapiens)
Construct: His-tag; made in house; host or cells: Sf9 insect cells
Sequence (Q9UHD2 whole entry): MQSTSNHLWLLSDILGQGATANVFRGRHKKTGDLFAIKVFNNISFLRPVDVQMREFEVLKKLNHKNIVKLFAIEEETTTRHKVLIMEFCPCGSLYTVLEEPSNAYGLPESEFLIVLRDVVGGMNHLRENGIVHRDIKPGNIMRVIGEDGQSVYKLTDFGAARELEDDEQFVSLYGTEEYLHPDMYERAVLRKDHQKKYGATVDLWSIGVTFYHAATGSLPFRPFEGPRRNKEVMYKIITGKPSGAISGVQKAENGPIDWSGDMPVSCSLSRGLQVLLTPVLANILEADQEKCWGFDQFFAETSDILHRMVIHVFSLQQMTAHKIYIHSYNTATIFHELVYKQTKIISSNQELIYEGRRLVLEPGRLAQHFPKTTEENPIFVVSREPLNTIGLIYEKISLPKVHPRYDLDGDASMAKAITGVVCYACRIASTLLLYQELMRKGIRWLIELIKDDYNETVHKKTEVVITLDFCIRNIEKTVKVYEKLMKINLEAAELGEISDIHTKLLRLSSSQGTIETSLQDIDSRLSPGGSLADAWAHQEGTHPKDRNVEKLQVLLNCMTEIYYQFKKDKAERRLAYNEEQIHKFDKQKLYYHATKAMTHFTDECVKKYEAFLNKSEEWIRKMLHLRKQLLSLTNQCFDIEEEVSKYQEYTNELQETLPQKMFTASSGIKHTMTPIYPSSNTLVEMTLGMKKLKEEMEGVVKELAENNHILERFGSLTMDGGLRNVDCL
Test: In-vitro TBK1 kinase assay ([γ33]ATP filter-plate)
Format: biochemical
Conditions: text bins; read-out: IC50 for inhibition of the kinase activity of TBK1
pIC50: −log10 of the molar value.
RESULT_TYPE: pIC50

[
  {
    "MOLECULE": "COc1ccc(-c2ccnc(Nc3ccc(S(=O)(=O)NCCCN)c(OC)c3)n2)cc1C#N",
    "pIC50": "7.00 to 8.00"
  }
]

Given "COc1cc(NC(=O)NC[C@@H](C)O)cc(Nc2nccc(-c3ccc(OC)c(C#N)c3)n2)c1" , respond with its pIC50.
> 8.00

Given "COc1ccc(Nc2nccc(-c3ccc(N(C)C)c(C#N)c3)n2)cc1OC" , respond with its pIC50.
> 8.00

Given "N#Cc1cccc(-c2ccnc(Nc3ccc(Cl)cc3)n2)c1" , respond with its pIC50.
6.30 to 7.00

Given "Cc1ccc(Nc2nccc(-c3ccc(NC(=O)C(C)C)c(C#N)c3)n2)cc1OCCCN1CCOCC1" , respond with its pIC50.
7.00 to 8.00

Given "N#Cc1cc(-c2ccnc(Nc3ccc(N4CCOCC4)cc3)n2)ccc1O[C@@H]1CCN(C(=O)CO)C1" , respond with its pIC50.
> 8.00

Given N#Cc1cc(-c2ccnc(Nc3ccc(N4CCOCC4)cc3)n2)ccc1OCC1CCCN(C(=O)CO)C1 (stereo not shown) , respond with its pIC50.
> 8.00

Given "CC1(COc2ccc(-c3ccnc(Nc4ccc(N5CCN(CCO)CC5)cc4)n3)cc2C#N)COC1" , respond with its pIC50.
> 8.00

Given "C[C@H](O)C(=O)N1CCC(Oc2ccc(-c3ccnc(Nc4ccc(C(=O)NCCCN(C)C)cc4)n3)cc2C#N)CC1" , respond with its pIC50.
> 8.00

Given "CC(=O)N1CCC(Oc2ccc(-c3ccnc(Nc4ccc(N5CCOCC5)cc4)n3)cc2C#N)CC1" , respond with its pIC50.
7.00 to 8.00

Given "Cc1ccc(Nc2nccc(-c3ccc(OC4CCOCC4)c(C#N)c3)n2)cc1OCCN" , respond with its pIC50.
> 8.00

Given "COc1cc(Nc2nccc(-c3ccc(OC4CCOCC4)c(C#N)c3)n2)ccc1OCCCS(=O)(=O)N1CCOCC1" , respond with its pIC50.
> 8.00

Given "COc1cc(C#N)cc(-c2ccnc(Nc3ccc(N4CCOCC4)cc3)n2)c1" , respond with its pIC50.
7.00 to 8.00

---

Biological target: IKKε (Homo sapiens)
Construct: His-tag; made in house; host or cells: Sf9 insect cells
Test: In-vitro IKKε kinase assay ([γ33]ATP filter-plate)
Format: biochemical
Conditions: text bins; read-out: IC50 for inhibition of the kinase activity of IKKε
Recorded IC50 values for a group of molecules are listed next.

[
  {
    "MOLECULE": "CCC(=O)Nc1ccc(-c2ccnc(Nc3ccc(N4CCOCC4)cc3)n2)cc1C#N [compound 445]",
    "IC50": "5 to 50 nM"
  }
]

Given N#Cc1cc(-c2ccnc(Nc3cccc(OCCCN4CCOCC4)c3)n2)ccc1OC1CCOCC1 [compound 528] , respond with its IC50.
5 to 50 nM

Given CC(C)C[C@H](O)C(=O)N1CCC(Oc2ccc(-c3ccnc(Nc4ccc(N5CCOCC5)cc4)n3)cc2C#N)CC1 [Example 229] , respond with its IC50.
5 to 50 nM

---

Recorded IC50 values for a group of compounds are listed next.
Target: IKKε (Homo sapiens)
Construct: His-tag; made in house; host or cells: Sf9 insect cells
Experiment: In-vitro IKKε kinase assay ([γ33]ATP filter-plate)
Format: biochemical
Conditions: text bins; read-out: IC50 for inhibition of the kinase activity of IKKε

Below, each entry is followed by its recorded IC50 result.
[
  {
    "STRUCTURE_SMILES_STRING": "N#Cc1cc(-c2ccnc(Nc3ccc(N4CCOCC4)cc3)n2)ccc1NC(=O)c1cccnc1",
    "RESULT_TYPE": "IC50",
    "RECORDED_VALUE": "50 to 500 nM"
  },
  {
    "STRUCTURE_SMILES_STRING": "Cc1ccc(Nc2nccc(-c3ccc(OC4CCOCC4)c(C#N)c3)n2)cc1OCCCN1CCOCC1",
    "RESULT_TYPE": "IC50",
    "RECORDED_VALUE": "< 5 nM"
  },
  {
    "STRUCTURE_SMILES_STRING": "COc1cc(Nc2nccc(-c3ccc(OC)c(C#N)c3)n2)cc(C(=O)N2CC[C@@H](O)C2)c1",
    "RESULT_TYPE": "IC50",
    "RECORDED_VALUE": "50 to 500 nM"
  }
]

# context switch: different compound, same IC50
Given "COc1cc(NC(=O)NC2CCN(C)CC2)cc(Nc2nccc(-c3ccc(OC)c(C#N)c3)n2)c1" , respond with its IC50.
50 to 500 nM

---

Target: TBK1 (Homo sapiens)
Construct: His-tag; made in house; host or cells: Sf9 insect cells
Experiment: In-vitro TBK1 kinase assay ([γ33]ATP filter-plate)
Format: biochemical
Conditions: text bins; read-out: IC50 for inhibition of the kinase activity of TBK1
pIC50: −log10 of the molar value.
RESULT_TYPE: pIC50

[
  {
    "COMPOUND": "CC(C)C(=O)Nc1ccc(-c2ccnc(Nc3ccc(CCN4CCOCC4)cc3)n2)cc1C#N",
    "pIC50": "7.00 to 8.00"
  },
  {
    "COMPOUND": "Cc1ccc(Nc2nccc(-c3ccc(OC4CCOCC4)c(C#N)c3)n2)cc1OCCCN1CCOCC1",
    "pIC50": "> 8.00"
  },
  {
    "COMPOUND": "CC(C)C(=O)Nc1ccc(-c2ccnc(Nc3ccc(CC(=O)NCCCN4CCOCC4)cc3)n2)cc1C#N",
    "pIC50": "7.00 to 8.00"
  },
  {
    "COMPOUND": "COc1ccc(-c2ccnc(Nc3cc(CO)c(OC)c(OC)c3)n2)cc1C#N",
    "pIC50": "> 8.00"
  },
  {
    "COMPOUND": "CC(C)(COc1ccc(-c2ccnc(Nc3ccc(N4CCOCC4)cc3)n2)cc1C#N)C(=O)O",
    "pIC50": "7.00 to 8.00"
  }
]

Fill in pIC50 for "N#Cc1cc(-c2ccnc(Nc3ccc(N4CCOCC4)cc3)n2)ccc1OC1CCCCC1" tested with TBK1 (Homo sapiens).
> 8.00

---

Biological target: IKKε (Homo sapiens, UniProt Q14164)
Construct: His-tag; made in house; host or cells: Sf9 insect cells
Sequence (Q14164 whole entry): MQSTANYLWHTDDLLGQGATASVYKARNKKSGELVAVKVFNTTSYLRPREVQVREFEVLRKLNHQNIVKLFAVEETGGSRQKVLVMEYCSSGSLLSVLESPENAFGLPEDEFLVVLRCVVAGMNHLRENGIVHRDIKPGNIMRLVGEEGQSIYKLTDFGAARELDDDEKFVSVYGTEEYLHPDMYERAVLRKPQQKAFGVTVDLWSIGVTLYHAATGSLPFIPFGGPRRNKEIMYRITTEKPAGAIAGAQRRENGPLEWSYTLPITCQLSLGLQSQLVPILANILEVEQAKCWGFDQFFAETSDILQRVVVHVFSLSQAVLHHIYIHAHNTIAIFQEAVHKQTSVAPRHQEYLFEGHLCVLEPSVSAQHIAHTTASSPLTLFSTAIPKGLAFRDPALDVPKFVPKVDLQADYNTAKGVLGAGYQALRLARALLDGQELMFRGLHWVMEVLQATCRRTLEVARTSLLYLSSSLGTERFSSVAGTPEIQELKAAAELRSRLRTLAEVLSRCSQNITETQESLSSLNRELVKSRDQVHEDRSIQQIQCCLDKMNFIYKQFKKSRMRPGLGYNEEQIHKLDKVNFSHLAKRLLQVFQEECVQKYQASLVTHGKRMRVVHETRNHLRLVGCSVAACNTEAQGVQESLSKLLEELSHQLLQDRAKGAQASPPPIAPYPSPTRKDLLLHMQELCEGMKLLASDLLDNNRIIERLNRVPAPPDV
Assay: In-vitro IKKε kinase assay ([γ33]ATP filter-plate)
Assay type: biochemical
Conditions: text bins; read-out: IC50 for inhibition of the kinase activity of IKKε
Recorded IC50 values for a group of compounds are listed next.

[
  {
    "COMPOUND": "N#Cc1cc(-c2ccnc(Nc3ccc(Cn4ccnc4)cc3)n2)ccc1OC1CCOCC1",
    "IC50": "< 5 nM"
  },
  {
    "COMPOUND": "COc1cc(Nc2nccc(-c3ccc(OC4CCOCC4)c(C#N)c3)n2)ccc1O",
    "IC50": "< 5 nM"
  },
  {
    "COMPOUND": "CN(C)C(=O)Nc1ccc(-c2ccnc(Nc3ccc(N4CCOCC4)cc3)n2)cc1C#N",
    "IC50": "50 to 500 nM"
  },
  {
    "COMPOUND": "CC(C)C(=O)Nc1ccc(-c2ccnc(Nc3cccc(CC(=O)NCCCN4CCOCC4)c3)n2)cc1C#N",
    "IC50": "5 to 50 nM"
  },
  {
    "COMPOUND": "COc1cc(Nc2nccc(-c3ccc(OC4CCOCC4)c(C#N)c3)n2)ccc1C(=O)N1CC2CC1CN2 (stereo not shown)",
    "IC50": "< 5 nM"
  }
]

Given "CC(C)NC(=O)NCCOc1ccc(-c2ccnc(Nc3ccc(N4CCOCC4)cc3)n2)cc1C#N" , respond with its IC50.
5 to 50 nM

Given "COc1cc(Nc2nccc(-c3ccc(OC4CCNCC4)c(C#N)c3)n2)ccc1S(=O)(=O)NCCCN(C)C" , respond with its IC50.
50 to 500 nM

Given "Cc1nccn1Cc1ccc(Nc2nccc(-c3ccc(OC4CCOCC4)c(C#N)c3)n2)cc1" , respond with its IC50.
< 5 nM

Given "CN1CCN(C2CCN(c3ccc(-c4ccnc(Nc5ccc(N6CCOCC6)cc5)n4)cc3C#N)CC2)CC1" , respond with its IC50.
50 to 500 nM

Given "COc1cc(C#N)cc(-c2ccnc(Nc3ccc(OC)c(OC)c3)n2)c1" , respond with its IC50.
5 to 50 nM

Given "COc1cc(Nc2nccc(-c3ccc(OC4CCOCC4)c(C#N)c3)n2)ccc1C(=O)N1CCCC1" , respond with its IC50.
< 5 nM

Given "COc1cc(Nc2nccc(-c3ccc(OCC(C)C)c(C#N)c3)n2)ccc1CN1CC(OC)C1" , respond with its IC50.
5 to 50 nM

Given "COc1cc(Nc2nccc(-c3ccc(OC4CCNCC4)c(C#N)c3)n2)ccc1S(=O)(=O)NCCCO" , respond with its IC50.
5 to 50 nM

Given COc1cc(Nc2nccc(-c3ccc(OC4CCN(C(=O)CO)C4)c(C#N)c3)n2)ccc1N1CCC(N2CCN(C)CC2)CC1 (stereo not shown) , respond with its IC50.
50 to 500 nM

Given "CC(C)C(=O)Nc1ccc(-c2ccnc(Nc3ccc(CCN4CCNCC4)cc3)n2)cc1C#N" , respond with its IC50.
50 to 500 nM

Given "COCCNCc1ccc(Nc2nccc(-c3ccc(NC(=O)C4CC4)c(C#N)c3)n2)cc1" , respond with its IC50.
5 to 50 nM
